Biological target: TYK2 (Homo sapiens)
Experiment: TYK2 degradation MSD assay in OCI-LY10 cells
Assay type: cell-based
Design: endogenous in cells; host or cells: EBV-B cells
Conditions: 4 to 24 hours incubation, read-out: TYK2 MSD DC50 rating in OCI-LY10
Protocol: Example 3. TYK2 Degradation MSD Assay in EBV-B, OCI-LY10, and Human PBMC Cells Degradation of TYK2 in cells was quantitatively measured using Meso Scale Discovery (MSD) technology. […] The assay plates were then incubated at room temperature for 1 hour, washed 3 times with 150 μl/well TBST buffer, and 150 μl/well MSD reading buffer (MSD, R92TC-2) were added. The plates were then analyzed by an MSD reader. […]
Reported DC50 is given for each of the following compounds.

Before answering, review these 5 worked examples.
CNc1cc(N2CCc3c(-c4cc(N5CCN(CC6CCN(c7cccc8c7n(C)c(=O)n8C7CCC(=O)NC7=O)CC6)CC5)ccn4)cccc32)nn2c(C(=O)NC3CC3F)cnc12 (stereo not drawn) :: 1 to 10 nM
Cn1c(=O)n(C2CCC(=O)NC2=O)c2cccc(C#CCN3CCN(Cc4ccc(-c5cccc(Nc6ccc7ncc(C(=O)NC8CC8)n7n6)c5)nc4)CC3)c21 (stereo not drawn) :: > 100 nM
CNc1cc(Nc2cccnc2OC2CCN(CCN3CCN(c4ccc5c(c4)n(C)c(=O)n5C4CCC(=O)NC4=O)CC3)CC2)nn2c(C(=O)N[C@@H]3C[C@@H]3F)cnc12 (stereo partly drawn) :: 1 to 10 nM
CNc1cc(N2CCc3c(N4CCC(CN5CC6(C5)CN(c5ccc(-c7ccc8c(c7)n(C)c(=O)n8C7CCC(=O)NC7=O)cc5)C6)CC4)cccc32)nn2c(C(=O)N[C@@H]3C[C@@H]3F)cnc12 (stereo partly drawn) :: 1 to 10 nM
CNc1cc(-c2cnn(C3CN(C(=O)NCCCCCCc4ccc5c(c4)n(C)c(=O)n5C4CCC(=O)NC4=O)C3)c2)nn2c(C(=O)N[C@@H]3C[C@@H]3F)cnc12 (stereo partly drawn) :: > 100 nM

Query: Record request: DC50 value, item CNc1cc(Nc2cccn(-c3cccc(C(=O)NCCCCCCc4ccc5c(c4)n(C)c(=O)n5C4CCC(=O)NC4=O)c3)c2=O)nn2c(C(=O)N[C@@H]3C[C@@H]3F)cnc12 (stereo partly drawn)
Result: > 100 nM

Query: Likewise for CNc1cc(Nc2cccc(N3CCC(CN4CC5(C4)CN(c4ccc(-c6ccc7c(c6)n(C)c(=O)n7C6CCC(=O)NC6=O)cc4)C5)CC3)c2OC)nn2c(C(=O)N[C@@H]3C[C@@H]3F)cnc12 (stereo partly drawn) ?
Result: < 1 nM

Query: Likewise for CNc1cc(Nc2ccccc2C(=O)NCCCCCCc2cccc3c2n(C)c(=O)n3C2CCC(=O)NC2=O)nn2c(C(=O)N[C@@H]3C[C@@H]3F)cnc12 (stereo partly drawn) ?
Result: 10 to 100 nM

###

biological target: TYK2 (Homo sapiens, UniProt P29597); test: TYK2 degradation MSD assay in human PBMC cells; assay type: cell-based; design: endogenous in cells; host or cells: human PBMC; conditions: 4 to 24 hours incubation, read-out: TYK2 MSD DC50 rating in human PBMC
Sequence (P29597 whole entry): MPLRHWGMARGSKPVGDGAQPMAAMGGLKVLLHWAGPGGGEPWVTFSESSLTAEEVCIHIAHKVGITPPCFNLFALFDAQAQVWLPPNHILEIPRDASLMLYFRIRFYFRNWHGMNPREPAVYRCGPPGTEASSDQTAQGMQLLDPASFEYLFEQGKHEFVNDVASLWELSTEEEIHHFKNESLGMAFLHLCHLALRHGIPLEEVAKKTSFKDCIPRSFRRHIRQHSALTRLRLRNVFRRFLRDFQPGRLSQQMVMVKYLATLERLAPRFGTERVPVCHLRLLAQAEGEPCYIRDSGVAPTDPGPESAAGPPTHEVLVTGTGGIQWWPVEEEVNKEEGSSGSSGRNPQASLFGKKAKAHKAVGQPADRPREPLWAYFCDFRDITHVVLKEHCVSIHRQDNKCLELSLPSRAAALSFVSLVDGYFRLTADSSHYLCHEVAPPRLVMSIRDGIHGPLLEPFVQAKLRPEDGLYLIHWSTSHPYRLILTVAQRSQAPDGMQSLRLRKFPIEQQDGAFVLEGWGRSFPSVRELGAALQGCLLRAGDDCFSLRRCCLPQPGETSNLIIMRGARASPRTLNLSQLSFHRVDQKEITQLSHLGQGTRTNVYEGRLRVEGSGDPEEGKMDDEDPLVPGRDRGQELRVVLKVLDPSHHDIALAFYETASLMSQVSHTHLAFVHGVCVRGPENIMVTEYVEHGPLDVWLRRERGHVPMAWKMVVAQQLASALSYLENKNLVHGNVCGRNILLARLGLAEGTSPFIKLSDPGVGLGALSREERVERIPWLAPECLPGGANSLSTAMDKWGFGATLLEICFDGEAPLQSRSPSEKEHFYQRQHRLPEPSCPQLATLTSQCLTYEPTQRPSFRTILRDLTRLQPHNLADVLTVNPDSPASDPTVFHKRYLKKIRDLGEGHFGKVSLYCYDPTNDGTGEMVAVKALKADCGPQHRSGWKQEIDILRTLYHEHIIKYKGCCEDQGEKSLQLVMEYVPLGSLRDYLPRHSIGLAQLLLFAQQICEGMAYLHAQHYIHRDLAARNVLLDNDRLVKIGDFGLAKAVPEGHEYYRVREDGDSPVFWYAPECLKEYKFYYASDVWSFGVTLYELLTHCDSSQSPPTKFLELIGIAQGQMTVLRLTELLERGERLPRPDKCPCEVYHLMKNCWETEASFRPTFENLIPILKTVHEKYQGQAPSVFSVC
Reported DC50 is given for each of the following compounds.

Before answering, review these 5 worked examples.
CNC(=O)c1cnc(Nc2ccc(CN3CCC(c4ccc5c(c4)n(C)c(=O)n5C4CCC(=O)NC4=O)C3)cn2)cc1Nc1cccc(-c2ncc(F)cn2)c1OC (stereo not drawn) :: > 100 nM
CNc1cc(N2CCc3c(-c4cc(CN5CCN(c6ccc7c(c6)n(C)c(=O)n7C6CCC(=O)NC6=O)CC5)ccn4)cccc32)nn2c(C(=O)NC3CC3F)cnc12 (stereo not drawn) :: > 100 nM
CNc1cc(Nc2cccn(-c3ccc(C(=O)NCCCCc4ccc5c(c4)n(C)c(=O)n5C4CCC(=O)NC4=O)cn3)c2=O)nn2c(C(=O)NC3CC3)cnc12 (stereo not drawn) :: > 100 nM
CNc1cc(Nc2cccc(CN3CCC(c4cccc5c4n(C)c(=O)n5C4CCC(=O)NC4=O)CC3)c2)nn2c(C(=O)NC3CC3)cnc12 (stereo not drawn) :: > 100 nM
CNc1cc(Nc2cccn(-c3ccc(C(=O)NCCOCCOCCc4cccc5c4n(C)c(=O)n5C4CCC(=O)NC4=O)cn3)c2=O)nn2c(C(=O)N[C@@H]3C[C@@H]3F)cnc12 (stereo partly drawn) :: 1 to 10 nM

Shifting focus to the compound that follows.
Query: Record request: DC50 value, item CNC(=O)c1cnc(NC(=O)CCCCCCCc2ccc3c(c2)n(C)c(=O)n3C2CCC(=O)NC2=O)cc1Nc1cccc(-c2ncc(F)cn2)c1OC (stereo not drawn)
Result: > 100 nM
